molecular target: UniProtKB P43116
Sequence (P43116 whole entry): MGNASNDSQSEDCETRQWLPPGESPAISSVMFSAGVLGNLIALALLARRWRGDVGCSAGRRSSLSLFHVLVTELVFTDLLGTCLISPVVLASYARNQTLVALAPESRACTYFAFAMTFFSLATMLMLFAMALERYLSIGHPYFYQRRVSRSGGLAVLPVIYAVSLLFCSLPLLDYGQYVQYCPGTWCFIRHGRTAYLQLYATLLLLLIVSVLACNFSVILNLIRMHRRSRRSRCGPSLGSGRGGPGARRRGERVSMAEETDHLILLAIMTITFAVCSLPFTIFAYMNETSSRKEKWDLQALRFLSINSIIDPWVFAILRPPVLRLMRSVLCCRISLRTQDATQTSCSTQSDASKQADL

compound | Ki / nM
COc1ccc(CC2=CCc3cccc(CCc4ccc(C(=O)O)cc4)c32)cc1 | 27
COc1ccc(OC)c(CC2=CCc3cccc(CCc4ccc(C(=O)O)cc4)c32)c1 | 61
O=C(O)c1ccc(CCc2cccc3c2C(Cc2cc(F)cc(F)c2)=CC3)cc1 | 27
COc1cc(CC2=CCc3cc(F)cc(CCc4ccc(C(=O)O)cc4)c32)cc(OC)c1 | 18
COc1cc(OC)cc(S(=O)(=O)N2CCc3cccc(CCc4ccc(C(=O)O)cc4)c32)c1 | 776
COc1cc(CC2CCc3cccc(OCc4ccc(C(=O)O)cc4)c32)cc(OC)c1 (stereo not drawn) | 469
COc1cc(CC2=CCc3ccc(OC)c(CCc4ccc(C(=O)O)cc4)c32)cc(OC)c1 | 1700
COc1ccc(CC2=CCc3cccc(CCc4ccc(C(=O)O)cc4)c32)cc1OC | 20
COc1cc(CN2CCc3cccc(CCc4ccc(C(=O)O)s4)c32)cc(OC)c1 | 47
COc1cc(CC2=CCCc3cccc(CCc4ccc(C(=O)O)cc4)c32)cc(OC)c1 | 116
O=C(O)c1ccc(CCc2cccc3c2C(Cc2cc(C(F)(F)F)cc(C(F)(F)F)c2)=CC3)cc1 | 8
COc1ccccc1CC1=CCc2cccc(CCc3ccc(C(=O)O)cc3)c21 | 67

The reported numbers originate from patent US9546162B2.
